src = PubChem BioAssay AID1259309

assay: growth inhibition of ugtP-null S. aureus, primary screen, RN4220 ugtP deletion, OD600 (AID 1259309); details: 16 h, active compounds read high;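 further: plate controls were untreated wells for no effect and antibiotic for full effect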
Out of some 330,000 compounds screened, about 1,800 (0.55%) were called active. What follows is part of a selection rich in actives, with near analogues and random picks from the rest.
value-kind: growth inhibition (%)
Numbers only here, please. The scale is %.

Query: I am curious: what growth inhibition value has been reported for Cn1ccc(=Nc2ccc(NC(=O)c3ccc(N=c4ccn(C)c5ccc([N+](=O)[O-])cc45)cc3)cc2)cc1 ?
Response: 99.6

Query: I am curious: what growth inhibition value has been reported for Cc1c(O)ccc(C(Cc2ccc3ccccc3n2)=NN)c1O ?
Response: 7.02

Query: I am curious: what growth inhibition value has been reported for O=C(NC(=S)Nc1ccccc1N1CCCCC1)c1ccc(F)cc1 ?
Response: 59.3

Query: I am curious: what growth inhibition value has been reported for COc1ccc(/C=C\C(=O)Oc2cccc(C=NNC(=O)Cc3ccc(OC)c(OC)c3)c2)cc1 ?
Response: 28.2

Query: I am curious: what growth inhibition value has been reported for CN(Cc1c(C(=O)NN=Cc2cccc(F)c2)nnn1-c1nonc1N)c1ccccc1 ?
Response: 0.685

Query: I am curious: what growth inhibition value has been reported for COc1ccc(C(=O)NC(=S)Nc2ccccc2N2CCN(S(C)(=O)=O)CC2)cc1OC ?
Response: -0.518

Query: I am curious: what growth inhibition value has been reported for CCOC(=O)NN=Cc1ccc(C)o1 ?
Response: 3.13

Query: I am curious: what growth inhibition value has been reported for Cn1c(=O)[nH]c(=O)c2c1nc(N1CCCCC1)n2CC=NNc1ccc(C(=O)O)cc1 ?
Response: 10.4

Query: I am curious: what growth inhibition value has been reported for COc1ccc(C=NNC(=O)CN2CCCC2)cc1 ?
Response: 3.93

Query: I am curious: what growth inhibition value has been reported for CCc1ccc(NC(=O)c2ccc(Cn3cc([N+](=O)[O-])cn3)cc2)cc1 ?
Response: 5.62

Query: I am curious: what growth inhibition value has been reported for CC(C)=CCc1ccc(O)c(=O)cc1C(C)C ?
Response: -4.82

====

assay: growth inhibition of ugtP-null S. aureus, primary screen, RN4220 ugtP deletion, OD600 (AID 1259309); conditions: 16 h, active compounds read high;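 further: plate controls were untreated wells for no effect and antibiotic for full effect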
The whole screen tested about 330,000 compounds, of which about 1,800 (0.55%) were called active. The sample as a whole holds a higher share of actives than the screen did.
value-kind: growth inhibition (%)
Numbers only here, please. The scale is %.

Query: I am curious: what growth inhibition value has been reported for CNC(=O)CCCCC(=O)NN=Cc1ccc(Cl)cc1Cl ?
Response: -1.21

Query: I am curious: what growth inhibition value has been reported for CC1COc2ccccc2N1C(=O)c1ccc(F)cc1 (centres undefined) ?
Response: -0.431

Query: I am curious: what growth inhibition value has been reported for N#C/C(=C(/O)Cc1cccc2ccccc12)c1nc2ccccc2s1 ?
Response: 88

Query: I am curious: what growth inhibition value has been reported for O=C(Nc1nnc(C2COc3ccccc3O2)o1)c1ccc(F)cc1 (centres undefined) ?
Response: 90.2

Query: I am curious: what growth inhibition value has been reported for O=C(COC(=O)C=Cc1ccccc1)Nc1cc(C(F)(F)F)ccc1N1CCOCC1 ?
Response: -9.22

Query: I am curious: what growth inhibition value has been reported for CC(C)=CCCC1(C)C=Cc2c(ccc3c2[nH]c2cc(O)c(C)cc23)O1 (centres undefined) ?
Response: 95.6

Query: I am curious: what growth inhibition value has been reported for COc1ccc(Cl)cc1NC(=O)CN(C)C(=O)CCCc1c[nH]c2ccccc12 ?
Response: 98.4

Query: I am curious: what growth inhibition value has been reported for O=C(COC(=O)c1ccc(F)cc1)NCC1COc2ccccc2O1 (centres undefined) ?
Response: -4.48

Query: I am curious: what growth inhibition value has been reported for CC(C)CCn1c(=O)c(C(=O)NN=Cc2cccc(F)c2)c(O)c2ccccc21 ?
Response: 99

Query: I am curious: what growth inhibition value has been reported for C=CCOc1ccc(C(O)=C2C(=O)C(=O)N(CCCOC)C2c2ccc(O)c(OC)c2)cc1 (centres undefined) ?
Response: 8.37

Query: I am curious: what growth inhibition value has been reported for CCCn1c(=O)c(-c2ccccc2)c(O)c2ccccc21 ?
Response: 10.2

Query: I am curious: what growth inhibition value has been reported for COc1ccc(O)c(C=NNC(=O)CN2CCS(=O)(=O)CC2)c1 ?
Response: -0.335

Query: I am curious: what growth inhibition value has been reported for Clc1cc(-c2ccc(C=Nn3cnnc3)o2)ccc1Br ?
Response: -3.77

Query: I am curious: what growth inhibition value has been reported for COc1ccc(OC)c(C=NNC(=O)c2ccc(-c3ccccc3)cc2)c1 ?
Response: 1.81

Query: I am curious: what growth inhibition value has been reported for Cn1c2ccccc2c2nnc(NN=Cc3ccc(O)cc3)nc21 ?
Response: 3.8

Query: I am curious: what growth inhibition value has been reported for CCn1c(/C=C/c2ccc([N+](=O)[O-])o2)nc2ccccc2c1=O ?
Response: 11.7

Query: I am curious: what growth inhibition value has been reported for CC1CN(C(C)CO)C(=O)Cc2cc(NC(=O)C3CC3)ccc2OC1CN(C)Cc1ccc(Oc2ccccc2)cc1 (centres undefined) ?
Response: 9.46

Query: I am curious: what growth inhibition value has been reported for COc1ccc(Cl)cc1NC(=O)CN(C)C(=O)CNC(=O)C12CC3CC(CC(C3)C1)C2 ?
Response: -1.84

Query: I am curious: what growth inhibition value has been reported for CCCCCn1c(=O)c(C(=O)NCc2ccccn2)c(O)c2ccccc21 ?
Response: 10.1

Query: I am curious: what growth inhibition value has been reported for Cc1ccc(-c2nc(C#N)c(NCCCn3ccnc3)o2)cc1 ?
Response: -7.44

Query: I am curious: what growth inhibition value has been reported for CC(CC(=O)N1CCN(C=O)CC1)=NNC(=O)c1ccc(Cl)cc1 ?
Response: 3.18

Query: I am curious: what growth inhibition value has been reported for O=[N+]([O-])c1cc(C=NNC(=Nc2ccccn2)c2ccccn2)ccc1O ?
Response: 66.8

Query: I am curious: what growth inhibition value has been reported for CCOc1cc(C=NNC(=O)c2nnn(-c3nonc3N)c2C)ccc1OCc1cccc(F)c1 ?
Response: -21.1

Query: I am curious: what growth inhibition value has been reported for CC1CN(C(C)CO)C(=O)Cc2cc(NC(=O)CCC(F)(F)F)ccc2OC1CN(C)S(=O)(=O)c1ccc(Cl)cc1 (centres undefined) ?
Response: 4.94

Query: I am curious: what growth inhibition value has been reported for C#CCOCCOCCOCCNc1nc(N2CCN(C(=O)C(CCCCN)n3cc(C(N)CC(C)C)nn3)CC2)nc(N2CCN(C(=O)C(CCCCN)n3cc(C(N)CC(C)C)nn3)CC2)n1 (centres undefined) ?
Response: 0.321

Query: I am curious: what growth inhibition value has been reported for O=c1c2ccccc2nc(/C=C/c2ccc(F)cc2)n1-c1ccccc1O ?
Response: 97.9

Query: I am curious: what growth inhibition value has been reported for O=S(=O)(c1ccccc1)c1nc(-c2ccccc2)oc1NCCCN1CCOCC1 ?
Response: 2.69

Query: I am curious: what growth inhibition value has been reported for COc1ccc(Cl)cc1NC(=O)CN(C)C(=O)c1cc2ccccc2cc1OC ?
Response: -3.53

Query: I am curious: what growth inhibition value has been reported for ON=Cc1ccc(OCc2ccccc2)c(Br)c1 ?
Response: 1.91

====

assay: growth inhibition of ugtP-null S. aureus, primary screen, RN4220 ugtP deletion, OD600 (AID 1259309); conditions: 16 h;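 further: plate controls were untreated wells for no effect and antibiotic for full effect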
About 1,800 (0.55%) of roughly 330,000 compounds were called active. Rule as the data show it: active = growth inhibition above about 68%; inactive = the rest. Many of the other results were omitted from the sample, so actives are more common in it than they were.
Just give me one of these, please: active, inactive

Query: Please indicate how the test categorized O=c1[nH]ncc(NN=Cc2cccnc2)c1Cl .
Response: inactive

Query: Please indicate how the test categorized CCC(=O)CC(c1ccc([N+](=O)[O-])cc1)c1c(O)c2ccccc2oc1=O (stereo unspecified) .
Response: inactive

Query: Please indicate how the test categorized Cc1cc(Nc2ccc(Br)cc2)nc2ccccc12 .
Response: active

Query: Please indicate how the test categorized Clc1ccc(Nc2ccc3ccccc3n2)cc1 .
Response: inactive

Query: Please indicate how the test categorized O=C(O)CC1(CC(=O)Nc2cccc(C(F)(F)F)c2)CCCC1 .
Response: inactive

Query: Please indicate how the test categorized COc1cc(C=Nn2c(C)nc3ccccc3c2=O)ccc1O .
Response: inactive

Query: Please indicate how the test categorized O=C(Nc1ccccc1)Oc1cccc2cccnc12 .
Response: active

Query: Please indicate how the test categorized CN1CCN(c2nc(Nc3ccc(O)cc3)nc3ccccc23)CC1 .
Response: inactive

Query: Please indicate how the test categorized Cc1cccc(CCN2C(Nc3ccccc3)=NCC2CC(C)C)c1 (stereo unspecified) .
Response: inactive

Query: Please indicate how the test categorized CCOc1ccc(N2C(=O)CC(S/C(N)=N/N=Cc3cccs3)C2=O)cc1 (stereo unspecified) .
Response: inactive

Query: Please indicate how the test categorized COc1cc(C(c2c(O)c3ccccc3oc2=O)c2c(C)n(C)n(-c3ccccc3)c2=O)ccc1O (stereo unspecified) .
Response: active
